# credit: paper PMC8572102

format: in vivo, human (Chinese patients); conditions: human, plasma, 200 mg, Voriconazole trough concentration, median (IQR), all patients, 250 samples from 114 patients, voriconazole 200mg 12hrly, steady state
endpoint: concentration at 12 h
In your response, put the unit directly after the numeric value.

Sure, the documented concentration at 12 h for "C[C@@H](c1ncncc1F)[C@](O)(Cn1cncn1)c1ccc(F)cc1F" is 2100 ng/mL
